GI50 for assorted compounds
# System: NCI-H522 lung
# measurement-protocol: NCI tumour cell line growth inhibition, 48 h

Recorded GI50, per entry:
Request: Dear colleague, I am looking for the recorded GI50 of the following compound: `NC(=O)c1ccc2c(-c3ccnc(NCCCO)n3)c(-c3ccc(F)cc3)nn2c1`
Result: > 25 µM

Request: Dear colleague, I am looking for the recorded GI50 of the following compound: Cc1cc(N2CCCC2)nc(NC2CCCC(Nc3ccnc4cc(Cl)ccc34)C2)n1 (stereo not drawn)
Result: 1.58 µM

More entries:
Request: Dear colleague, I am looking for the recorded GI50 of the following compound: `CCN=c1cc2sc3cc(NCC)c(C)cc3nc-2cc1C`
Result: 0.419 µM

Request: Dear colleague, I am looking for the recorded GI50 of the following compound: `c1cc(OCCN2CCCCC2)ccc1CNc1ccc2nc(CCC3CCCCC3)[nH]c2c1`
Result: 1.98 µM

Request: Dear colleague, I am looking for the recorded GI50 of the following compound: `C[C@@H]1N=C(c2ccc(Br)cc2)Nc2nc3ccccn3c2C1=O`
Result: 3.24 µM

Request: Dear colleague, I am looking for the recorded GI50 of the following compound: `CC1(C)CC(n2cnc(-c3ccc(F)cc3)c2-c2ccnc(N)n2)CC(C)(C)N1`
Result: 17.6 µM

Request: Dear colleague, I am looking for the recorded GI50 of the following compound: `Cc1cc(N2CCN(c3ccnc4cc(Cl)ccc34)CC2)nc(NC2CCCCC2)n1`
Result: 1.93 µM

Request: Dear colleague, I am looking for the recorded GI50 of the following compound: C=CCN(CC=C)C(=O)c1cc(C)nc2c1c(=O)n(-c1ccccc1)c(=O)n2CC(O)CN1CCN(c2ncccn2)CC1 (stereo not drawn)
Result: > 100 µM

Request: Dear colleague, I am looking for the recorded GI50 of the following compound: `COc1cc2c(Oc3ccc4[nH]c(C)cc4c3F)ccnc2cc1OCC1(N)CC1`
Result: 1.27 µM

Request: Dear colleague, I am looking for the recorded GI50 of the following compound: `O=[N+]([O-])c1ccc(N=Nc2c(O)ccc3ccccc23)cc1`
Result: 35.9 µM

Request: Dear colleague, I am looking for the recorded GI50 of the following compound: `CC[Si](CC)(CC)OC[C@]1([C@@H]2COC(C)(C)O2)CC=CC(=O)O1`
Result: 35.4 µM

Request: Dear colleague, I am looking for the recorded GI50 of the following compound: `CCCN1CCN(c2ccc3nc(-c4ccc5nc(-c6cc(OC)ccc6OC)[nH]c5c4)[nH]c3c2)CC1`
Result: 1.74 µM

Request: Dear colleague, I am looking for the recorded GI50 of the following compound: `CCOc1ccc(Nc2nc(-c3ccc4c(c3)NC(=O)CO4)cs2)cc1`
Result: 4.27 µM
